- Test system: K562R cells (imatinib-resistant cell line)
- assay_text: tumor cell proliferation, MTT or CCK8 assay, 72 h incubation
- Format: cell-based
- experimental_parameters: Homo sapiens, K-562R, imatinib-resistant K562R, read-out: IC50 on tumor cell proliferation, K562R cells
endpoint_label: log10(IC50) (log10 of the value in nM)
Log scale reminder: IC50 in nM, then log10 taken.

smiles_string: Cc1ccc(C(=O)Nc2cc(-n3ccnc3)cc(C(F)(F)F)c2)cc1C#Cc1cnc2[nH]ncc2c1
log10(IC50): 1.73

Q: Supply reported log10(IC50) belonging to this compound: `Cc1ccc(C(=O)Nc2ccc(CN3CC[C@H](N(C)C)C3)c(C(F)(F)F)c2)cc1C#Cc1cnc2ccnn2c1`
Ans: 1.51

Q: Dear colleague, please send me the reported log10(IC50) for `Cc1ccc(C(=O)Nc2cc(-n3ccnc3)cc(C(F)(F)F)c2)cc1C#Cc1cnc(NC2CC2)nc1` when you can.
Ans: 1.86

Values were extracted from patent US8846671B2.
